Data provenance: patent US20200239543A1

biological target: T1, human CD47 (human, UniProt Q08722 19-139); assay: SPR, 25 C, 1:1 Langmuir fit
T1 construct: extracellular domain; also called CD47 ECD
T1 sequence (Q08722 19-139 limits assumed): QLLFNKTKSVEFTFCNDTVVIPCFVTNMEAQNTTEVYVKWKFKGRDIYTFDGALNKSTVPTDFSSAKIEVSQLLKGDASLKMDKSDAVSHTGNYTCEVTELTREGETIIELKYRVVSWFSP
Please go through the items and note down their log10 of Kd.
# log10 transformed; quantity=Kd; unit=pM

SIRP-α D1 variant polypeptide of SEQ ID NO: 68 (receptor, engineered SIRP-α D1 domain) EEELQIIQPDKSVSVAAGESAILHCTITSLFPVGPIQWFRGAGPARELIYNQREGPFPRVTTVSESTKRENMDFSISISNITPADAGTYYCVKFRKGSPDTEFKSGAGTELSVRAKPS: 2.40

// for each binder in input: emit log10 of Kd
1. SIRP-α D1 variant polypeptide of SEQ ID NO: 71 (receptor, engineered SIRP-α D1 domain) EEELQVIQPDKSVLVAAGETATLRCTATSLFPVGPIQWFRGAGPGRELIYNQRQGPFPRVTTVSDLTKRNNMDFSIRIGNITPADAGTYYCVKFRKGSPDDVEFKSGAGTELSVRAKPS
2. SIRP-α D1 variant polypeptide of SEQ ID NO: 60 (receptor, engineered SIRP-α D1 domain) EEELQIIQPDKSVSVAAGESAILHCTITSLFPVGPIQWFRGAGPARVLIYNQREGPFPRVTTVSETTKRENMDFSISISNITPADAGTYYCIKFRKGSPDTEFKSGAGTELSVRAKPS
3. SIRP-α D1 variant polypeptide of SEQ ID NO: 58 (receptor, engineered SIRP-α D1 domain) EEELQIIQPDKSVSVAAGESAILHCTITSLFPVGPIQWFRGAGPARELIYNQRQGPFPRVTTVSETTKRENMDFSISISNITPADAGTYYCIKFRKGSPDTEFKSGAGTELSVRAKPS
4. SIRP-α D1 variant polypeptide of SEQ ID NO: 54 (receptor, engineered SIRP-α D1 domain) EEELQVIQPDKSVSVAAGESAILHCTVTSLFPVGPIQWFRGAGPARELIYNQRQGPFPRVTTVSESTKRENMDFSISISNITPADAGTYYCVKFRKGSPDTEFKSGAGTELSVRAKPS
5. SIRP-α D1 variant polypeptide of SEQ ID NO: 56 (receptor, engineered SIRP-α D1 domain) EEELQIIQPDKSVSVAAGESAILHCTVTSLFPVGPIQWFRGAGPARVLIYNQRQGPFPRVTTVSETTKRENMDFSISISNITPADAGTYYCIKFRKGSPDTEFKSGAGTELSVRAKPS
6. SIRP-α D1 variant polypeptide of SEQ ID NO: 74 (receptor, engineered SIRP-α D1 domain) EEELQIIQPDKSVLVAAGETATLRCTITSLFPVGPIQWFRGAGPGRELIYNQREGPFPRVTTVSDTTKRNNMDFSIRIGNITPADAGTYYCVKFRKGSPDDVEFKSGAGTELSVRAKPS

Result:
[3.69, 2.58, 2.20, 3.43, 2.30, 2.44]
